tested on: PPARg DBDmut IVT, anti-PPARg (DBD mutation: PPARg1 K132A/R137A, NR concentration 270 nM); experiment: PBM binding z-score (relative to random genomic background probes); higher = stronger binding; sequences stand for … in GC…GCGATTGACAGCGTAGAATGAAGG
measured-quantity: PBM binding z-score
Kindly provide the number alone.

Example entries begin here.
In [3]: df
Out[3]:
                     sequence_content                            assayed_system    measured_quantity  result_value
0  AATACAGAGTCATCGTAGGCCAGAGTACGCACAG  PPARg DBDmut IVT, anti-PPARg (DBD mutation: PPARg1 K132A/R137A, NR concentration 270 nM)  PBM binding z-score         0.579
1  GCTATTAGTAGAAAGGGCAACCGAATGATTCTCG  PPARg DBDmut IVT, anti-PPARg (DBD mutation: PPARg1 K132A/R137A, NR concentration 270 nM)  PBM binding z-score         0.449
2  GCTGCTAGGTCAGGTTGGTCAGCGAACGGGTACG  PPARg DBDmut IVT, anti-PPARg (DBD mutation: PPARg1 K132A/R137A, NR concentration 270 nM)  PBM binding z-score         -1.25
3  CTAGCAAGGTGAACAAGGTCGTTGATTACTATTC  PPARg DBDmut IVT, anti-PPARg (DBD mutation: PPARg1 K132A/R137A, NR concentration 270 nM)  PBM binding z-score         -0.41
4  TCTTGTAGATCAGCACGTTAAGAAAGCTGGCCAA  PPARg DBDmut IVT, anti-PPARg (DBD mutation: PPARg1 K132A/R137A, NR concentration 270 nM)  PBM binding z-score        -0.271

INPUT: Look up and report measured PBM binding z-score for this entry: CCTGCTAGGTCAATCGTCAGCTAAAGCAGCTCGC
OUTPUT: -1.31

INPUT: Look up and report measured PBM binding z-score for this entry: CCTTACGGGTCATGAGGTTATAGCACGACGAGCG
OUTPUT: 0.99

INPUT: Look up and report measured PBM binding z-score for this entry: GCGACTGGGGCAGCAGCAGGTTACCATAACTTAA
OUTPUT: -0.983

* * *

test system: PPARg:RXRa 30nM:10nM, anti-RXR (NR concentration 30 nM, RXRa partner concentration 10 nM); test: PBM binding z-score (relative to random genomic background probes); higher = stronger binding; sequences stand for … in GC…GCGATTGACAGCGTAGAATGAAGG
// 0 (no) strictly below 0.6 in PBM binding z-score; 1 (yes) otherwise

Known results for sequences:
In [3]: df
Out[3]:
                     sequence_content    class
0  ATATGTAGGTTAGCTGGGGTCATTCAGACTAGGC  1 (yes)
1  TCGAGTAGGTTACCAATGGTGCATTCAGCTTTCT  1 (yes)
2  CCTAGCAGGCTAGGGTCACTCAAGCATTTCGCTT   0 (no)
3  ATCTCTAGGTAAAAGTACAGTGAATCCCGAGGAT  1 (yes)
4  CCTAGAAGGCCAGGGTCACTCAAGCATTTCGCTT   0 (no)
5  CGAACTAGGTCATCCAGGACAGCGAATACATTGA  1 (yes)
6  AGCCAAAGTTCAGGACGAGGTAACGTAAAGCACG  1 (yes)
7  CGTCCAAGGTTAAAGGTCAGTGAAGAGATGACGG  1 (yes)
8  CCGACTGGGGCAGAAAGGTTACCTTACCATCCGG   0 (no)
9  CCTGCTAGGTCATGATCAGCTAATCTACAGTATG  1 (yes)

INPUT: Check the entry AGAGCGAGGGCACGCTGAGTTGATAGCAGAGTAG : does PBM binding z-score equal or exceed 0.6?
OUTPUT: 0 (no)

INPUT: Check the entry TCATATAGGTAAAGGTGAACGTCGAACGATATGA : does PBM binding z-score equal or exceed 0.6?
OUTPUT: 1 (yes)

INPUT: Check the entry TCATATAGGTAAATGATAGGTGAAAGTCCGATCT : does PBM binding z-score equal or exceed 0.6?
OUTPUT: 1 (yes)

* * *

test system: RARg:RXRa (NR concentration 270 nM, RXRa partner concentration 90 nM); assay: PBM binding z-score (relative to random genomic background probes); higher = stronger binding; sequences stand for … in GC…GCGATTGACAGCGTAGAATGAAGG
Response field class: string, computed from recorded PBM binding z-score by ranges low value (below 0.4), medium value (0.4 to below 3), high value (3 or more)

Known results for sequences:
In [3]: df
Out[3]:
                     sequence_content                            assayed_system       class
0  TGAATGAGATTATAAGATCAGGGAACGTTGCAAA  RARg:RXRa (NR concentration 270 nM, RXRa partner concentration 90 nM)   low value
1  ACTAGTTTGTCAGCTGAGGTCACACACAATTCGG  RARg:RXRa (NR concentration 270 nM, RXRa partner concentration 90 nM)  high value

INPUT: Class for GCTTGTAGATCAAGGTGAAGAAAGACTAAGCTAA ?
OUTPUT: low value

INPUT: Class for CTCGAAAGGTCGTGCTCCGGTGAGTATACCAAAC ?
OUTPUT: high value

INPUT: Class for CCGACCGGGGCAAGGTTACCATAACGCACAGCCA ?
OUTPUT: medium value

INPUT: Class for TCGGGTAGGTTACCAATGGGGCATTCAGCTTTCT ?
OUTPUT: medium value

* * *

system: PPARg:RXRa DBDmut IVT, anti-RXR (DBD mutation: RXRa K156A/R161A, NR concentration 270 nM, RXRa partner concentration 90 nM); assay: PBM binding z-score (relative to random genomic background probes); higher = stronger binding; sequences stand for … in GC…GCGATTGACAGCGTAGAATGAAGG
Response field class: string, computed from recorded PBM binding z-score by ranges low end: < 1; middle: ≥ 1 and < 3; high end: ≥ 3

>>> print(df.to_string())
                     sequence_content   class
0  TGAATGAGGTTATAAGATCAGTGAACGTTGCAAA  middle
1  CTACGAAGGTGAACAAGGTCGTTGATTACTATTC  middle
2  TAGCCTAGGTCATGGACCAGTATACCACGCGAAC  middle
3  GCTTGTAGATCAACGTTAAGAAAGACTAAGCTAA  middle

INPUT: Class for AGTCAATGTTCAGGACGAGGTAACGTAAAGCACG ?
OUTPUT: low end

INPUT: Class for TCGAGTAGGATAGGGGCATTCAGAATGGCGTCGA ?
OUTPUT: low end

INPUT: Class for TAGCCTATGTCAGATCGGGCCAGTATACGCTATA ?
OUTPUT: low end

INPUT: Class for TCTAGTTGGTCACGGAAGTCACACACGACGGGTA ?
OUTPUT: middle

INPUT: Class for ATATGTACGTTACATCCGGGTCATTCAGGCTATG ?
OUTPUT: middle

INPUT: Class for CGAACTAGGGCATTGACAGGACAGTGAATAGTAA ?
OUTPUT: high end

* * *

Parameter PBM binding z-score: see the listing below.
test system: PPARg:RXRa DBDmut IVT, anti-RXR (DBD mutation: RXRa K156A/R161A, NR concentration 270 nM, RXRa partner concentration 90 nM); experiment: PBM binding z-score (relative to random genomic background probes); higher = stronger binding; sequences stand for … in GC…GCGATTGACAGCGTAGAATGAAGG
Kindly provide the number alone.

INPUT: Look up and report measured PBM binding z-score for this entry: CAAACAAGGTCAAGAGGTCAAAGTCCGCTTCCCG
OUTPUT: 5.59

* * *

test system: PPARg:RXRa 30nM:10nM, anti-RXR (NR concentration 30 nM, RXRa partner concentration 10 nM); test: PBM binding z-score (relative to random genomic background probes); higher = stronger binding; sequences stand for … in GC…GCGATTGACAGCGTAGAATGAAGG
// False strictly below 2 in PBM binding z-score; True otherwise

>>> df
                     sequence_content  class
0  AGAACGAGGGGAATGAGTTGATAGCACGGGTGGC  False
1  CCCACTGGGGCATAAGGTTACCATAAGCCAGCCC  False
2  GGAACGAGGGCAAGTTGATAGCGGAGTTTGATGG  False
3  CCTACTGGGCCATTCAGAGGTCATAGATCATATG  False
4  ACAGACAGGTGATGTAGGTAACTCAGGCTATCAT  False
5  TCTTGTAGAGCAATAGAGGTTAAGAAAGTGCGCT  False
6  ATCTCTAGGTAGAGTTCAGTGAAAGATCGATAGA  False
7  CCTTACGGGTCACGAGGTTATAGCCCGACGAGCG   True

INPUT: Check the entry GATACAGCGTCAAGGCCAGAGTACGCGTATTGAT : does PBM binding z-score equal or exceed 2?
OUTPUT: False

INPUT: Check the entry CCTACTGGGCCAAGGTCCTTGATCAGTCAAAGCA : does PBM binding z-score equal or exceed 2?
OUTPUT: False

# credit: the supplement of paper PMC6555819
